So I've got a bunch of molecules here, and I need their normalized growth values.
# experiment.notes: chemical genetic growth profiling, strain panel (AID 1159580);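 further: tested at 20 µM; growth read once vehicle control cultures reached saturation at 30 °C; 1 = growth at the plate median or of vehicle wells; lower values mean less growth of the strain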
# condition: S. cerevisiae deletion strains, growth OD, locus YOR136W, strain idh2, hits give low values
In all, about 5,500 compounds went through this assay and about 2,000 (36%) were called active. Another 18% or so got no clear call; they are omitted. The list shows a part of the results.
One number for each entry.

# example entries with known answers
# molecule, measurement.label, value.observed
data = [
    ("Cc1ccccc1N1C(=O)c2cc(S(N)(=O)=O)c(Cl)cc2NC1C (stereo unspecified)", "normalized growth", 0.99),
    ("COc1ccc(-c2cc(=O)c3c(O)c(OC)c(OC)cc3o2)cc1O", "normalized growth", 0.98),
    ("COc1ccc(-c2cc(=O)c3c(O)cc(O)cc3o2)cc1", "normalized growth", 0.984),
]

Give me normalized growth for each of these molecules, listed below.
1. CO[C@@H]1[C@@H](OC(N)=O)[C@@H](O)[C@H](Oc2ccc3c(O)c(NC(=O)c4ccc(O)c(CC=C(C)C)c4)c(=O)oc3c2C)OC1(C)C
2. COc1cc(O)c2c(=O)cc(-c3ccc(O)cc3)oc2c1
3. CC1CCCC(C)N1NC(=O)c1ccc(Cl)c(S(N)(=O)=O)c1 (stereo unspecified)

result:
1
0.993
1.01

====

# experiment.notes: chemical genetic growth profiling, strain panel (AID 1159580);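 further: tested at 20 µM; growth read once vehicle control cultures reached saturation at 30 °C; 1 = growth at the plate median or of vehicle wells; lower values mean less growth of the strain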
# condition: S. cerevisiae deletion strains, growth OD, locus YKL085W, strain MDH1 (second series), hits give low values
The whole screen tested about 5,500 compounds, of which about 2,000 (36%) were called active. About 18% were inconclusive and are not listed. This is one part of the list.
measurement.label: normalized growth
Answers are plain numbers.

# molecule, measurement.label, value.observed
records = [
    ("NCCCN", "normalized growth", 0.984),
    ("CC1Cc2ccccc2N1NC(=O)c1ccc(Cl)c(S(N)(=O)=O)c1 (stereo unspecified)", "normalized growth", 0.988),
    ("CC(=O)O[C@@H]1CC2C(C)(C)CCC[C@]2(C)C2CC[C@]3(C)C(=CC(=O)O[C@H]3c3ccoc3)[C@@]21C (stereo partly specified)", "normalized growth", 1.01),
    ("CN(C)CC[C@H](c1ccc(Cl)cc1)c1ccccn1", "normalized growth", 0.995),
    ("NCCCCN", "normalized growth", 1),
]

Sure, the documented normalized growth for CC(C)(C)NCC(O)COc1cccc2c1C[C@H](O)[C@H](O)C2 (stereo partly specified) is 0.99

====

# experiment.notes: chemical genetic growth profiling, strain panel (AID 1159580);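 further: tested at 20 µM; growth read once vehicle control cultures reached saturation at 30 °C; 1 = growth at the plate median or of vehicle wells; lower values mean less growth of the strain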
# condition: S. cerevisiae deletion strains, growth OD, locus YDR069C, strain doa4, hits give low values
In all, about 5,500 compounds went through this assay and about 2,000 (36%) were called active. Another 18% or so got no clear call; they are omitted. Some of the results follow.
measurement.label: normalized growth
Give bare numbers.

Consider the worked cases shown below.
# molecule, measurement.label, value.observed
rows = [
    ("OC1(c2ccc(Cl)c(C(F)(F)F)c2)CCN(CCCC(c2ccc(F)cc2)c2ccc(F)cc2)CC1", "normalized growth", 0.0704),
    ("CC1(C)S[C@@H]2C(N3C(=O)[C@@H](c4ccccc4)NC3(C)C)C(=O)N2[C@H]1C(=O)O (some centres undefined)", "normalized growth", 0.977),
    ("NC[C@H]1O[C@H](OC2[C@@H](N)C[C@@H](N)[C@H](O[C@H]3O[C@H](CO)[C@@H](O)[C@H](N)[C@H]3O)[C@H]2O)[C@H](O)[C@@H](O)[C@@H]1O (some centres undefined)", "normalized growth", 1),
    ("COC1=CC(=O)C=C(OC)C1=O", "normalized growth", 1),
    ("CC1=CC(=O)C2C(C)(C)CCC[C@]2(C)[C@@]1(O)CCc1ccoc1 (some centres undefined)", "normalized growth", 0.994),
]

Items follow; give normalized growth for each.
1. CN(C)CC[C@H](c1ccc(Cl)cc1)c1ccccn1
2. CC1(C)C(O)CC(=O)C2(C)C1CC(O)C1(C)C2CCC2(C)C(c3ccoc3)OC(=O)C3OC321 (centres undefined)

result:
1: 1.01; 2: 1

Could you report normalized growth for every entry in the following list?
1. COc1cc(O)c2c(=O)cc(-c3ccc(OC)c(-c4c(O)cc(O)c5c(=O)cc(-c6ccc(O)cc6)oc45)c3)oc2c1
2. O=C(Oc1cccc2cccnc12)c1ccccc1
3. CC(=O)OC1CC[C@@]2(C)C(CCC3C2CC[C@]2(C)C(C4=CC(=O)OC4)C(OC(C)=O)CC32O)C1 (some centres undefined)
4. O=C(CCCN1CCC(O)(c2ccc(Cl)cc2)CC1)c1ccc(F)cc1
5. O=C(Oc1ccccc1C(=O)O)c1ccccc1O
6. O=C(CCCN1CCN(c2ccccn2)CC1)c1ccc(F)cc1

result:
[0.914, 0.953, 0.942, 0.837, 0.971, 0.858]

Count: 2. Required value per item: normalized growth.
1. CC(=O)Oc1ccccc1C(=O)Oc1ccccc1C(=O)O
2. COc1ccc(-c2cc(=O)c3c(O)cc(O)c(-c4cc(-c5cc(=O)c6c(O)cc(O)cc6o5)ccc4OC)c3o2)cc1

result:
0.996
0.95

I'm hoping you can list normalized growth for every molecule here, please.
1. CCCCCC(O)C1C(=O)OC(C)C(O)/C=C/C=C/C=C/C=C/C=C(\C)C(O)CC(O)CC(O)CC(O)CC(O)CC(O)CC1O (centres undefined)
2. CC1(C)S[C@@H]2[C@H](NC(=O)C(C(=O)O)c3ccccc3)C(=O)N2[C@H]1C(=O)O (some centres undefined)
3. CC[C@@]1(O)C(=O)OCc2c1cc1n(c2=O)Cc2cc3ccccc3nc2-1
4. COC(=O)[C@H]1[C@H]2C[C@H]3c4[nH]c5cc(OC)ccc5c4CCN3C[C@H]2C[C@@H](OC(=O)c2cc(OC)c(OC)c(OC)c2)[C@@H]1OC

result:
1: 0.996; 2: 0.978; 3: 0.767; 4: 1

I have 4 molecules here; please give me normalized growth for each one.
1. CN(C)C(=O)C(CCN1CCC(O)(c2ccc(Cl)cc2)CC1)(c1ccccc1)c1ccccc1
2. COc1ccc(-c2cc(=O)c3c(O)c(OC)c(O[C@H]4O[C@H](CO[C@@H]5O[C@@H](C)[C@H](O)[C@@H](O)[C@H]5O)[C@@H](O)[C@H](O)[C@H]4O)cc3o2)cc1
3. CC(C)C[C@@H](NC(=O)OCC1c2ccccc2-c2ccccc21)C(=O)O
4. C[C@@H](CO)NC(=O)C1C=C2c3cccc4[nH]cc(c34)C[C@H]2N(C)C1 (some centres undefined)

result:
[1, 0.967, 0.993, 1.04]

For the 6 molecules below, give their normalized growth values.
1. C[C@H]1O[C@@H](O[C@H]2[C@@H](O)C[C@H](O[C@H]3[C@@H](O)C[C@H](O[C@H]4CC[C@]5(C)C6C[C@@H](O)[C@]7(C)[C@@H](C8=CC(=O)OC8)CC[C@]7(O)C6CC[C@@H]5C4)O[C@@H]3C)O[C@@H]2C)C[C@H](O)[C@@H]1O (some centres undefined)
2. C[C@H]1O[C@@H](O[C@H]2[C@@H](O)C[C@H](O[C@H]3[C@@H](O)C[C@H](O[C@H]4CC[C@]5(C)C6CC[C@]7(C)[C@@H](C8=CC(=O)OC8)CC[C@]7(O)C6CC[C@@H]5C4)O[C@@H]3C)O[C@@H]2C)C[C@H](O)[C@@H]1O (some centres undefined)
3. CC1(C)O[C@@H]2CC3C4C[C@H](F)C5=CC(=O)CC[C@]5(C)C4[C@@H](O)C[C@]3(C)[C@]2(C(=O)CO)O1 (some centres undefined)
4. CCn1nc(C(=O)O)c(=O)c2cc3c(cc21)OCO3
5. COc1ccc(-c2cc(=O)c3c(OC)c(OC)c(OC)c(OC)c3o2)cc1OC
6. CC(C)=CC1C(CO)C1(C)C (centres undefined)

result:
0.996
1.02
1.01
1.02
1.01
1.04

Your task in this section: give normalized growth for each listed record.
1. COc1cc(-c2cc(=O)c3c(O)c(OC)c(OC)c(OC)c3o2)cc(OC)c1OC
2. COC(=O)C(N)CS (centres undefined)
3. COP(N)(=O)SC (centres undefined)
4. COC1CC(OC2CCC3(C)C(CCC4C3CCC3(C)C(C5=CC(=O)OC5)C(OC(C)=O)CC43O)C2)OC(C)C1O (centres undefined)
5. C[C@]12CCC3C(CC[C@]4(O)C[C@@H](O)CC[C@]34C=O)[C@@]1(O)CCC2C1=CC(=O)OC1 (some centres undefined)

result:
1. 1.02
2. 0.959
3. 1.01
4. 1.01
5. 0.986
